B1: HDV Ribozyme (parent)
chain: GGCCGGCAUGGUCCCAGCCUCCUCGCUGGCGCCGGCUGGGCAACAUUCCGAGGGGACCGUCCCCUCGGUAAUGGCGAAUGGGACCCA

# Variants of: B1
# test method notes: self-cleavage, relative activity (ratio to wild type); higher = more cleavage; co-transcriptional
Binary classification by self-cleavage, with 0.2 as an inclusive lower bound for Criterion met; all other cases are Criterion not met.

Test whether the variant U37G G59C records self-cleavage of 0.2 or higher.
Criterion not met

Hi team, for C44A G81C , is the recorded self-cleavage at or above 0.2?
Criterion not met

Evaluate G38A A45G : self-cleavage at minimum 0.2?
Criterion not met

Confirm if self-cleavage reported for the variant U20A C24A is 0.2 or above.
Criterion not met

Determine whether measured self-cleavage meets or exceeds 0.2 for G55C G80C
Criterion met

Identify whether the reported self-cleavage of the following variant is 0.2 or greater: G5C A8U
Criterion not met

Please tell me: is the variant G35U G39C at or over 0.2 in terms of self-cleavage?
Criterion not met

Does the variant C24U C58A have recorded self-cleavage that is 0.2 or more?
Criterion met

Does the reported self-cleavage for G35C A42G fall at or above the 0.2 mark?
Criterion not met

Is self-cleavage for U20A G40U at or above 0.2?
Criterion not met

Kindly determine if self-cleavage recorded for A45C C58U is above or exactly 0.2.
Criterion met

Check the entry C26U G31A : does self-cleavage equal or exceed 0.2?
Criterion met

Origin of values: the RNAGym collection of RNA variant scans (doi:10.7554/elife.80360)
